# target or test system: Vasoactive intestinal polypeptide receptor 2 (Homo sapiens) (UniProt P41587)
# Sequence (P41587 whole entry, the tested form may be a part): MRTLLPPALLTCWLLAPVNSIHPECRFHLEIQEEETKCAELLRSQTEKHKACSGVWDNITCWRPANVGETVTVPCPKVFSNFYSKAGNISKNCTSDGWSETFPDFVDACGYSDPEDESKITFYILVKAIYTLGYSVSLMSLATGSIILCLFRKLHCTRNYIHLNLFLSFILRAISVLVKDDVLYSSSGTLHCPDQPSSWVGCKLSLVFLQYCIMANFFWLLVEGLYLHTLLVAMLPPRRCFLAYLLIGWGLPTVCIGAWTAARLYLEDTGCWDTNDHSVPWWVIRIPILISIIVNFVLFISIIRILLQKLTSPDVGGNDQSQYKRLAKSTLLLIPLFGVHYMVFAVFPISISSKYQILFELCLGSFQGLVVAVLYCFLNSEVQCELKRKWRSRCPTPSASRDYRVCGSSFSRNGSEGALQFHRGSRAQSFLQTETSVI
# assay comment: Antagonist activity at recombinant human N-terminal signal peptide/FLAG epitope-tagged Rluc8-fused VIPR2 expressed in HEK293 cells assessed as inhibition of VIP-induced human mVenus-beta-arrestin2 binding at 0.5 uM preincubated for 5 mins with luciferin, coelenterazine H followed by VIP addition measured after 5 mins by BRET assay relative to control
# Type: cell-based
// reported inhibition per item

Provide only the value of recorded inhibition for O=C(Nc1ccc(S(=O)(=O)NC[C@@H](O)C[C@@H](Cc2ccccc2)C(=O)N[C@H]2c3ccccc3C[C@H]2O)cc1)C1CC1
6.4 to 15.1%

Provide only the value of recorded inhibition for O=C(NC1CCCc2ccccc21)[C@@H](Cc1ccccc1)C[C@H](O)CNS(=O)(=O)c1ccc([N+](=O)[O-])cc1 (stereo partly drawn)
4.8 to 9%

Provide only the value of recorded inhibition for O=C([C@@H](Cc1ccccc1)C[C@H](O)CNS(=O)(=O)c1ccc([N+](=O)[O-])cc1)N1CCCCC1
9.5 to 12.2%

Provide only the value of recorded inhibition for O=C(CCl)NC[C@@H](O)C[C@@H](Cc1ccccc1)C(=O)N[C@H]1c2ccccc2C[C@H]1O
9.9 to 16.6%

Provide only the value of recorded inhibition for O=C(NN1CCCCC1)[C@H](Cc1ccccc1)C[C@H](O)CNS(=O)(=O)c1ccc([N+](=O)[O-])cc1
-6.4 to 5.45%

Provide only the value of recorded inhibition for NC(=O)[C@H](Cc1ccccc1)C[C@H](O)CNS(=O)(=O)c1ccc([N+](=O)[O-])cc1
-6.5 to 10.4%

Provide only the value of recorded inhibition for O=C(NC1CCCC1)[C@@H](Cc1ccccc1)C[C@H](O)CNS(=O)(=O)c1ccc([N+](=O)[O-])cc1
-5.7 to 0.5%

Provide only the value of recorded inhibition for C[C@H](CC(C)(C)C)NC(=O)[C@H](Cc1ccccc1)C[C@H](O)CNS(=O)(=O)c1ccc([N+](=O)[O-])cc1
-5.2 to 23.3%
